Recorded temperature at which decomposition ended, one value per entry.
experimentalDetails: Thermogravimetric analysis (TG) in the air
Assay type: physicochemical
reportedConditions: TG in the air

{"compound": "CC(=O)[O-].CC(=O)[O-].CNCCO.CNCCO.[Ni+2] [NANME, nickel acetate-bis(N-methylethanolamine)]", "temperature at which decomposition ended [°C]": 379}
{"compound": "CC(=O)[O-].CC(=O)[O-].CC(O)CN.CC(O)CN.[Ni+2] (centres unmarked) [NAMiP, nickel acetate-bis(1-amino-2-propanol)]", "temperature at which decomposition ended [°C]": 406}
{"compound": "CC(=O)[O-].CC(=O)[O-].NCCCO.NCCCO.[Ni+2] [NAMP, nickel acetate-bis(3-amino-propanol)]", "temperature at which decomposition ended [°C]": 393}
{"compound": "NCCO.NCCO.NCCO.O.O.O=C[O-].O=C[O-].[Ni+2] [NFME]", "temperature at which decomposition ended [°C]": 403}
{"compound": "CC(=O)[O-].CC(=O)[O-].NCCO.NCCO.NCCO.NCCO.[Pd+2] [PA-ME]", "temperature at which decomposition ended [°C]": 310}

====

experimentalDetails: Thermogravimetric analysis (TG) in the air
Type: physicochemical
reportedConditions: Table 1

{"smilesEntry": "CC(=O)[O-].CC(=O)[O-].NCCCO.NCCCO.NCCCO.NCCCO.[Pd+2]", "Decomp. Start. / °C": 173}
{"smilesEntry": "CC(=O)[O-].CC(=O)[O-].CC(C)(C)NCCO.CC(C)(C)NCCO.[Pd+2]", "Decomp. Start. / °C": 166}
{"smilesEntry": "CC(=O)[O-].CC(=O)[O-].CCNCCO.CCNCCO.[Pd+2]", "Decomp. Start. / °C": 153}
{"smilesEntry": "CC(=O)[O-].CC(=O)[O-].NCCCCO.NCCCCO.NCCCCO.NCCCCO.[Pd+2]", "Decomp. Start. / °C": 186}
{"smilesEntry": "CC(=O)[O-].CC(=O)[O-].CNCCO.CNCCO.[Pd+2]", "Decomp. Start. / °C": 155}
{"smilesEntry": "CC(=O)[O-].CC(=O)[O-].CC(C)NCCO.CC(C)NCCO.[Pd+2]", "Decomp. Start. / °C": 155}
{"smilesEntry": "CC(=O)[O-].CC(=O)[O-].CCCNCCO.CCCNCCO.[Pd+2]", "Decomp. Start. / °C": 154}

====

experimentalDetails: Electron-emitting characteristics of device measured with measurement evaluation apparatus
reportedConditions: Table 1
Simple rule here: Ie/If less than 0.04% is yes, otherwise no.

{"smilesEntry": "CC(=O)[O-].CC(=O)[O-].NCCCCO.NCCCCO.NCCCCO.NCCCCO.[Pd+2]", "className": "no"}
{"smilesEntry": "CC(=O)[O-].CC(=O)[O-].CCNCCO.CCNCCO.[Pd+2]", "className": "no"}
{"smilesEntry": "CC(=O)[O-].CC(=O)[O-].CNCCO.CNCCO.[Pd+2]", "className": "no"}
{"smilesEntry": "CC(=O)[O-].CC(=O)[O-].CCCNCCO.CCCNCCO.[Pd+2]", "className": "yes"}

====

reportedConditions: water

{"molecule": "CC(=O)[O-].CC(=O)[O-].CC(C)(C)NCCO.CC(C)(C)NCCO.[Pd+2] [Ex. 26]", "unit": "Pdwt %", "Solubility": 0.7}
{"molecule": "CC(=O)[O-].CC(=O)[O-].CNCCO.CNCCO.[Pd+2] [Ex. 22]", "unit": "Pdwt %", "Solubility": 16.0}
{"molecule": "CC(=O)[O-].CC(=O)[O-].CCNCCO.CCNCCO.[Pd+2] [Ex. 23]", "unit": "Pdwt %", "Solubility": 8.4}
{"molecule": "CC(=O)[O-].CC(=O)[O-].CCCNCCO.CCCNCCO.[Pd+2] [Ex. 24]", "unit": "Pdwt %", "Solubility": 4.0}
{"molecule": "CC(=O)[O-].CC(=O)[O-].CC(C)NCCO.CC(C)NCCO.[Pd+2] [Ex. 25]", "unit": "Pdwt %", "Solubility": 3.7}
{"molecule": "CC(=O)[O-].CC(=O)[O-].NCCCCO.NCCCCO.NCCCCO.NCCCCO.[Pd+2] [Ex. 20]", "unit": "Pdwt %", "Solubility": 10.5}
